molecular target: Ubiquitin carboxyl-terminal hydrolase 10 (Homo sapiens); assay: blocks human USP10 ubiquitin-rhodamine cleavage (AID 1645856); conditions: purified USP10, Ub-rhodamine fluorescence, 60 min; at 20 µM; active compounds read high
About 510 (1.1%) of roughly 47,000 compounds were called active. What follows is part of a selection rich in actives, with near analogues and random picks from the rest.
Endpoint Name: inhibition (%)
# unit: % | format: bare number

[
  {
    "Compound": "CCc1cccc(C)c1NC(=O)Cn1nc2ccc(C(=O)NCc3ccccc3)cn2c1=O",
    "Test System": "Ubiquitin carboxyl-terminal hydrolase 10 (Homo sapiens)",
    "inhibition (%)": 36
  },
  {
    "Compound": "CN1CCC2(CN(c3ncccn3)CC23CCN(C(=O)Cc2ccccc2)CC3)C1=O (stereo not drawn)",
    "Test System": "Ubiquitin carboxyl-terminal hydrolase 10 (Homo sapiens)",
    "inhibition (%)": -1.5
  },
  {
    "Compound": "Cc1ccc(CC(=O)N2CCN(C(=O)c3cc(-c4ccccn4)n[nH]3)CC2)cc1",
    "Test System": "Ubiquitin carboxyl-terminal hydrolase 10 (Homo sapiens)",
    "inhibition (%)": -1.22
  },
  {
    "Compound": "C=C1CCC2[C@](C)(CCC[C@]2(C)C(=O)OC)[C@H]1CCc1ccoc1CNCC(=O)O (stereo partly drawn)",
    "Test System": "Ubiquitin carboxyl-terminal hydrolase 10 (Homo sapiens)",
    "inhibition (%)": 3.42
  },
  {
    "Compound": "C=C1CCC2[C@](C)(CCC[C@]2(C)C(=O)OC)[C@H]1CCc1ccoc1/C=C/C(=O)O (stereo partly drawn)",
    "Test System": "Ubiquitin carboxyl-terminal hydrolase 10 (Homo sapiens)",
    "inhibition (%)": 46.4
  }
]

Okay, next one:
Problem: Which inhibition value is on record for `CCOc1ccccc1NC(=O)Cc1cccs1` ?
Result: 1.12

----------
target: Ubiquitin carboxyl-terminal hydrolase 10 (Homo sapiens); assay: blocks human USP10 ubiquitin-rhodamine cleavage (AID 1645856); details: purified USP10, Ub-rhodamine fluorescence, 60 min; at 20 µM; active compounds read high
Out of some 47,000 compounds screened, about 510 (1.1%) were called active. The sample holds actives, similar compounds and a random draw of the others, so the mix is not that of the screen.
Endpoint Name: inhibition (%)
# unit: % | format: bare number

Problem: Which inhibition value is on record for Cc1ccc(S(=O)(=O)N2CCCC(c3nc(-c4ccc(=O)[nH]c4)no3)C2)cc1 (centres undefined) ?
Result: 0.0273

Problem: Which inhibition value is on record for O=C(CNC1CCCc2ccccc21)Nc1cc(S(=O)(=O)N2CCCCC2)ccc1Cl (centres undefined) ?
Result: 1.62

Problem: Which inhibition value is on record for Cc1cc(C(=O)N2CCCCC2c2nncn2CC2CC2)nn1C (centres undefined) ?
Result: 1.03

Problem: Which inhibition value is on record for CC(OC(=O)c1cn(-c2ccccc2)nc1-c1cccnc1)C(=O)Nc1cccc(S(=O)(=O)N(C)C)c1 (centres undefined) ?
Result: -8.1

----------
target: Ubiquitin carboxyl-terminal hydrolase 10 (Homo sapiens); assay: blocks human USP10 ubiquitin-rhodamine cleavage (AID 1645856); conditions: purified USP10, Ub-rhodamine fluorescence, 60 min; at 20 µM; active compounds read high
Out of some 47,000 compounds screened, about 510 (1.1%) were called active. This excerpt belongs to a sample that is enriched for actives.
Documented inhibition across a set of molecules
# unit: % | format: bare number

[
  {
    "Molecule": "O=C(Nc1ccc(Cl)cc1F)c1cc(-c2ccccn2)n[nH]1",
    "Test System": "Ubiquitin carboxyl-terminal hydrolase 10 (Homo sapiens)",
    "inhibition (%)": 10.2
  }
]

Problem: Which inhibition value is on record for `COc1ccc(Nc2cc(C(=O)N3CCC4(CC3)OCCO4)c3ccccc3n2)cc1` ?
Result: -0.645

Problem: Which inhibition value is on record for Cc1cccc(CNC(=O)C2CCc3nc(N4CCOCC4)ncc3C2)c1 (configuration not stated) ?
Result: -3.24

Problem: Which inhibition value is on record for `CCc1cccc(C)c1NC(=O)CSc1nc2c(c(=O)[nH]1)CCCC2` ?
Result: 0.855

Problem: Which inhibition value is on record for `COc1ccc(C(=O)Cn2nc(C)cc2C)cc1` ?
Result: -2.02

Problem: Which inhibition value is on record for `Cc1cccc(-c2nnc(-c3cccc(S(=O)(=O)N4CCCC4)c3)o2)c1` ?
Result: 3.94

Problem: Which inhibition value is on record for `COc1cc(Cl)c(NC(=O)c2cc(-c3ccccn3)n[nH]2)c(OC)c1` ?
Result: 38

Problem: Which inhibition value is on record for `COc1cccc(CNC(=O)c2ccc3c(=O)nc4c(-c5ccccc5)n[nH]n4c3c2)c1` ?
Result: 17.4

Problem: Which inhibition value is on record for Cc1nn(-c2cccc(Cl)c2)c2c1C(C(=O)c1ccc3c(c1)OCCO3)CC(=O)N2 (configuration not stated) ?
Result: -1.54

Problem: Which inhibition value is on record for `Cc1ccc(Nc2nc(NCC(=O)Nc3cc(C)ccc3C)nc(Nc3ccc(C)cc3)n2)cc1` ?
Result: 37

Problem: Which inhibition value is on record for Cc1cc(-c2ccccc2C(=O)O)nc(C2CCCNC2)n1 (configuration not stated) ?
Result: 1.65

Problem: Which inhibition value is on record for Cn1c(C2CCN(C(=O)Nc3ccc4c(c3)CCC4)C2)nc2cccnc21 (configuration not stated) ?
Result: -0.116
